Test Target: CD33-GFP fusion protein, wild type (WT), on 293FT cells (UniProt P20138)
Sequence (P20138 18-364): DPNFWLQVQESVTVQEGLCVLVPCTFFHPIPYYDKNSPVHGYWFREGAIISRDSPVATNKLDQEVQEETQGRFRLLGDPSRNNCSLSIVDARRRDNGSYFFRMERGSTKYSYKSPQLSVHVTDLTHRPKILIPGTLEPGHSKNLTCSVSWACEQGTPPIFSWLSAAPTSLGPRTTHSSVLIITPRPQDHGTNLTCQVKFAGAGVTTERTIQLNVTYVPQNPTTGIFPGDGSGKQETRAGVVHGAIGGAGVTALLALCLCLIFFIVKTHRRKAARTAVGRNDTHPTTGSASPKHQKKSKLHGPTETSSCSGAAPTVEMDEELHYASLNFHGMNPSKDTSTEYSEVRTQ
Method Notes: FACS, WT CD33-GFP on 293FT cells; also: unit not given here
Property Name: FACS binding data
Form field (numeric): enter value without unit.

Binder	Numeric Value
sdCD33_11 (VHH, sdAb from a naive llama phage library; also called 430; sdAb430) VHH: AVQLVESGGGLVQAGGSLRLSCAASGDTFANYAMGWFRQAPGKEREFVAAISWSDSSTHYADSVKGRFTIPRDNAKNAVYLQMDQLKPEDMAVYYCYAYIRGVGEVRYVDYWGQGTQVTVSS	97.6

# ---- query binder ----
Please give the measured FACS binding data for this binder: sdCD33_10 (VHH) VHH: QVQLVETGGGLVRAGGSLRLSCAASGRTADIYNIGWFRQAPGKEREFVAAITWIGRTPYYADAVKGRFAFSTDSAKNTVSLQMDNLKPEDTGVYYCNAAHYLEGNTDYYWGQGTQVTVSS
98
